Consider the following compounds and their measured IC50 readings.
Test system: HepG2
Test: Antiproliferative activity against human HepG2 cells
Format: functional, cell-based
OBSERVABLE: IC50

COMPOUND	MEASURED
COc1ccc2cc(C(=O)Oc3cccc(/C=C/C(=O)NO)c3)c(=O)oc2c1	6.91 µM
CCN(CC)c1ccc2cc(C(=O)Oc3cccc(/C=C/C(=O)NO)c3)c(=O)oc2c1	7.01 µM
COc1ccc2c3ccnc(C)c3n(CC3CCN(c4ncc(C(=O)NO)cn4)CC3)c2c1	1.41 µM
COc1ccc2c(c1)[nH]c1c(C)nccc12 [HARMINE]	> 20 µM
Cc1cnc(Nc2ccc(OCCN3CCCC3)cc2)nc1Nc1cccc(S(=O)(=O)NC(C)(C)C)c1 [FEDRATINIB]	0.56 µM
Cc1cccc(Nc2nc(Nc3ccc(NC(=O)CCCCCCC(=O)NO)cc3)ncc2C)c1	0.37 µM
COc1cccc(Nc2nc(Nc3ccc(NC(=O)CCCCCCC(=O)NO)cc3)ncc2C)c1	0.14 µM

* * *

Consider the following molecules and their measured IC50 readings.
Biological target: Protein deacetylase HDAC6 (Homo sapiens)
Sequence (Q9UBN7 whole entry): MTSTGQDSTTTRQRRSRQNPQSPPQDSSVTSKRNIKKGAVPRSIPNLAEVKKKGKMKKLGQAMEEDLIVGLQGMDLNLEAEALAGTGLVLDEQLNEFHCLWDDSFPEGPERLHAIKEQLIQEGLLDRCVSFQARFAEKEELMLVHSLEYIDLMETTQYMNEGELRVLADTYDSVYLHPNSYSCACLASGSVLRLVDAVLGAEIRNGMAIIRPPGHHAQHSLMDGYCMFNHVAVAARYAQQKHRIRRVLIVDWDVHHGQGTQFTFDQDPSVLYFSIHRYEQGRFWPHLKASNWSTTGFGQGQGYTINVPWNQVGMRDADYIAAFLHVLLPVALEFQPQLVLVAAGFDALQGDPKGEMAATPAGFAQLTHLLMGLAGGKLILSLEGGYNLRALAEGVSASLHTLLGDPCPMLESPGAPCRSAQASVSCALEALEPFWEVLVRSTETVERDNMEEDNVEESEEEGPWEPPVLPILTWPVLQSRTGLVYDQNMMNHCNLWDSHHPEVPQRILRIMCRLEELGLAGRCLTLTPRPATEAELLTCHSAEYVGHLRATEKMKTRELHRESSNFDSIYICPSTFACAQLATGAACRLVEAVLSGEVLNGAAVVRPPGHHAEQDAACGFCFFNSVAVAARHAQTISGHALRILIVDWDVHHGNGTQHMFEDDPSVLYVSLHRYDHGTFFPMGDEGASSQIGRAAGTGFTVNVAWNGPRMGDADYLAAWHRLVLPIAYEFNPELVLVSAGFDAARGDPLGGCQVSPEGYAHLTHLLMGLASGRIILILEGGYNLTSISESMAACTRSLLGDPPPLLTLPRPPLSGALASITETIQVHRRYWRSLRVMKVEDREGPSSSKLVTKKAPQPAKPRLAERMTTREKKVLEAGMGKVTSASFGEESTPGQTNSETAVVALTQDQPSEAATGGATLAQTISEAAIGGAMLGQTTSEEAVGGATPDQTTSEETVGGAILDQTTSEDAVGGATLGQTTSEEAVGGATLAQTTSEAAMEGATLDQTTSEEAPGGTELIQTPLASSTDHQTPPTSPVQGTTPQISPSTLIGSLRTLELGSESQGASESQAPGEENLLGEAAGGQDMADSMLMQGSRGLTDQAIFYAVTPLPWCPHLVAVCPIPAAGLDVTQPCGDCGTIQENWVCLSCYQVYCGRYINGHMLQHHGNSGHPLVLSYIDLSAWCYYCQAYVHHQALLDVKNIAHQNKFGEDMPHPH
Assay: Inhibition of HDAC6 in human HeLa cells incubated for 72 hrs by ELISA
Format: cell-based

COMPOUND STRUCTURE STRING	IC50, nM
CC(=O)c1c(-c2ccc([N+](=O)[O-])cc2)cn(CCCCCC(=O)NO)c1C	52
COc1ccc(-c2cn(CCCCCC(=O)NO)c(C)c2C(C)=O)cc1	52

* * *

System: K562
Test: Antiproliferative activity against human K562 cells measured after 72 hrs by CCK-8 assay
Type: functional, cell-based
Settings: K562, 72 h

COMPOUND STRUCTURE STRING	IC50 / nM
C=C[C@@]1(C)CC[C@H](C(=C)CN2CCN(C(=O)CCCCCCC(=O)NO)CC2)C[C@@H]1C(=C)Cn1cccn1	790
O=C(NO)c1ccc(N2CCN(C(=O)c3cc(-c4ccc(-c5ccccc5)cc4)nc4ccccc34)CC2)cc1	1080
C=C[C@]1(C)CC[C@@H](C(=C)Cn2cccn2)C[C@H]1C(=C)CN1CCN(C(=O)CCCCCCC(=O)NO)CC1	1000

* * *

Assay: Toxicity in female BALB/c mouse assessed as maximum tolerable dose
Conditions: in vivo

COMPOUND STRUCTURE STRING	UNIT INFO	MTD
CC(C)n1cnc2c(-c3cccc(OCCCC(=O)NO)c3)nc(N3CCOCC3)nc21	mg/kg	200

* * *

Tested on: HPAC
Assay: Antiproliferative activity against human HPAC cells assessed as inhibition of cell growth measured after 72 hrs by MTT assay
Type: functional, cell-based
OBSERVABLE: IC50 (nM)

MOLECULE	MEASURED TARGET	UNIT INFO	MEASURED
COc1ccc(-c2nc(N3CCOCC3)c3sc(CN(C)c4ncc(C(=O)NO)cn4)cc3n2)cn1 [FIMEPINOSTAT]	HPAC	nM	2

* * *

Experiment: Cytotoxicity against human BEAS-2B cells
Format: toxicity, cell-based
pIC50: −log10 of the molar value.
OBSERVABLE: pIC50

COMPOUND STRUCTURE STRING	MEASURED
CCCOc1ccc2c(OCCCCCCCC(=O)NO)cc(=O)oc2c1	< 4.30
COCCOc1ccc2c(OCCCCCCCC(=O)NO)cc(=O)oc2c1	< 4.30

* * *

Biological target: DNA (cytosine-5)-methyltransferase 1 (Homo sapiens, UniProt P26358)
Sequence (P26358 whole entry): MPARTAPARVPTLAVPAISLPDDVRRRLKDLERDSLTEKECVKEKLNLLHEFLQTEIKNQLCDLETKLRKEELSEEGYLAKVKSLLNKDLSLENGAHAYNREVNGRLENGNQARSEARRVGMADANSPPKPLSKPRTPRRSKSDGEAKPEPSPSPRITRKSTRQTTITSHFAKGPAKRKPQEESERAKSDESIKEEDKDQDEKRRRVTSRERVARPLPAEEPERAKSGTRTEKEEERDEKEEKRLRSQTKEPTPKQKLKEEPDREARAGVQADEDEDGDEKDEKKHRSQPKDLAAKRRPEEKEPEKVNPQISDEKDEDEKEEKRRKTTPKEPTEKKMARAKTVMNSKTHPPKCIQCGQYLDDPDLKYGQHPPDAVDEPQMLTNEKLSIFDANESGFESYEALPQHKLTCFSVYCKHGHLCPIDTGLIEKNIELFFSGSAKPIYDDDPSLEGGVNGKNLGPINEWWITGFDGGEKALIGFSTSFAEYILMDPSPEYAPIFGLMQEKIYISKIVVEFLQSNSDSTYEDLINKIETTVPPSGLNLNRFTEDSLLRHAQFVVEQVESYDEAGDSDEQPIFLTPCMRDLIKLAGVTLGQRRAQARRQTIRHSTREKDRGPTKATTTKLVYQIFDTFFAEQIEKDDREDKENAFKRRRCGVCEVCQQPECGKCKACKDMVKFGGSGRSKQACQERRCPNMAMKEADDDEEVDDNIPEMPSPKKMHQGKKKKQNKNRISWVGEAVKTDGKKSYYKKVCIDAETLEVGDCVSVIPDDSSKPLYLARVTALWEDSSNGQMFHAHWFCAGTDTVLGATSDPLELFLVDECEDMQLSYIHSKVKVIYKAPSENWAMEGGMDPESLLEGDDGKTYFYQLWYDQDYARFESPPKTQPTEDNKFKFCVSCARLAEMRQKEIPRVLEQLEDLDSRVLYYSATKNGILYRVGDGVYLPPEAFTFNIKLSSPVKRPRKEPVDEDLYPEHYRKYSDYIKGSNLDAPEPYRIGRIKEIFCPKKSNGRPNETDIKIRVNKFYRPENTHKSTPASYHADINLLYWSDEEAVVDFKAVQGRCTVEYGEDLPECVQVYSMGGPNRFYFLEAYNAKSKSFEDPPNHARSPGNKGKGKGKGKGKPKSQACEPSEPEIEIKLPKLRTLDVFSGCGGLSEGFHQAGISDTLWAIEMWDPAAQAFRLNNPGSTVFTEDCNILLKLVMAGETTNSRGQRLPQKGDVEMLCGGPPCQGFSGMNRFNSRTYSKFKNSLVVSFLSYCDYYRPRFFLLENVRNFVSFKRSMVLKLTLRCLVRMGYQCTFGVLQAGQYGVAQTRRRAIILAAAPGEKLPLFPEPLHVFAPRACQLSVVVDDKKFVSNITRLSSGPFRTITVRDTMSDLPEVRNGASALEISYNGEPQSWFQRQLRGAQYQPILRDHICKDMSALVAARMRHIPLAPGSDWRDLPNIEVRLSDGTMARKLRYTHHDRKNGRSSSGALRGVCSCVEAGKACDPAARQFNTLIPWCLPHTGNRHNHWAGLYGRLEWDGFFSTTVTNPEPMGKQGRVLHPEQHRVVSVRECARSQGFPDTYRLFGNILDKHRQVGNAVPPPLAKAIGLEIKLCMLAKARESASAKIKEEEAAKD
pIC50: −log10 of the molar value.

COMPOUND STRUCTURE STRING	pIC50
Nc1ccn(Cc2ccc(-c3cn(CCCCCCC(=O)NO)nn3)cc2)c(=O)n1	5.19

* * *

Test: Metabolic stability in human liver microsomes assessed as half life
Assay type: ADME, Microsome
OBSERVABLE: half-life

COMPOUND STRUCTURE STRING	MEASURED
CC(C)n1cnc2c(-c3cccc(OCCCC(=O)NO)c3)nc(N3CCOCC3)nc21	> 45 min

* * *

System: KYSE-450
Assay: Antiproliferative activity against human KYSE-450 cells
Format: functional, cell-based
pIC50: −log10 of the molar value.
Consider the following compounds and their measured pIC50 readings.
OBSERVABLE: pIC50

COMPOUND STRUCTURE STRING	MEASURED
CNC(=O)c1ccccc1Nc1nc(Nc2ccc(N3CCOCC3)cc2OC)ncc1Cl	6.14
CNC(=O)c1ccccc1Nc1nc(Nc2ccc(NC(=O)CCCCCCC(=O)NO)cc2)ncc1Cl	6.74

* * *

Target: UniProtKB Q13547
Sequence (Q13547 whole entry): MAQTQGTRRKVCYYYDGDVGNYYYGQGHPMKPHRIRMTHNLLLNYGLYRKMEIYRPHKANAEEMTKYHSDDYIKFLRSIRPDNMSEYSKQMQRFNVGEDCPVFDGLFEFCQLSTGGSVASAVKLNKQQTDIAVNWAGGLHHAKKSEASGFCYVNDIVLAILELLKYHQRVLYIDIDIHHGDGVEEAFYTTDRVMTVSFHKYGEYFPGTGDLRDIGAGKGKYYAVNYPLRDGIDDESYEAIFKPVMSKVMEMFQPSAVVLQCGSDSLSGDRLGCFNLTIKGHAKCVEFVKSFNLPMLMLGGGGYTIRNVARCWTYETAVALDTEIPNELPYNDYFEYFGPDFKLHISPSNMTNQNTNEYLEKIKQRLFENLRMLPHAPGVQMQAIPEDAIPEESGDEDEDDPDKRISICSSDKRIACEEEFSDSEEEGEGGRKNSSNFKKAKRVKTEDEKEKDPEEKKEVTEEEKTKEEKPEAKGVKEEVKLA
Experiment: Inhibition of HDAC1 (unknown origin)
Consider the following compounds and their measured IC50 readings.

COMPOUND	MEASURED TARGET	IC50 [nM]
CC1=C(C)C2C(c3ccc(Cl)cc3)=N[C@@H](CC(=O)Nc3ccc(C(=O)NO)cc3)c3nnc(C)n3C2S1 (stereo partly specified)	UniProtKB Q13547	21
CNc1ccc(-c2nc(N3CCOCC3)c3sc(CN(C)c4ncc(C(=O)NO)cn4)cc3n2)cn1	UniProtKB Q13547	0.9
COc1ncc(-c2ccc3ncc(C(=O)NCCCCCCC(=O)NO)cc3c2)cc1NS(=O)(=O)c1ccc(F)cc1F	UniProtKB Q13547	4.8
CC(C)(C)c1nc(-c2cccc(NS(=O)(=O)c3c(F)cccc3F)c2F)c(-c2ccnc(NCCCCCCC(=O)NO)n2)s1	UniProtKB Q13547	15.6
Nc1ccn(Cc2ccc(-c3cn(CCCCCCC(=O)NO)nn3)cc2)c(=O)n1	UniProtKB Q13547	2.68
COc1ccc2c3ccnc(C)c3n(CC3CCN(c4ncc(C(=O)NO)cn4)CC3)c2c1	UniProtKB Q13547	22
COc1ncc(-c2ccc3nccc(C(=O)NCCCCCC(=O)NO)c3c2)cc1NS(=O)(=O)c1cc(F)cc(F)c1	UniProtKB Q13547	4.8
Cc1cccc(Nc2nc(Nc3ccc(NC(=O)CCCCCCC(=O)NO)cc3)ncc2C)c1	UniProtKB Q13547	2.2
COc1ncc(-c2ccc3nccc(C(=O)NCCCCC(=O)NO)c3c2)cc1NS(=O)(=O)c1cc(F)cc(F)c1	UniProtKB Q13547	4.8
COc1cccc(Nc2nc(Nc3ccc(NC(=O)CCCCCCC(=O)NO)cc3)ncc2C)c1	UniProtKB Q13547	31.9
CNCCOc1ccc(-c2cc(=O)c3cc(OCCCCCC(=O)NO)cc(O)c3o2)cc1	UniProtKB Q13547	30
